Each entry below lists one item and its recorded protein stability index value.
B1: RSPH3 (parent)
chain: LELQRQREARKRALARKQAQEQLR

Variants of: B1
ASSAY_INFO: protein stability index of a GFP-peptide fusion (GPS, HEK-293T) (PSI 1-6); higher = more stable;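 also: lentivirally expressed fusions sorted by FACS into six bins by GFP to DsRed ratio, PSI derived from sequencing read proportions per bin multiplied by bin number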
TEST_PARAMETERS: c terminus: a fixed tail appended
ENDPOINT_NAME: protein stability index

                biopolymer_sequence            endpoint_name  value_reported
 0  LELQRQREARKRATARKQAQEQLR [L14T]  protein stability index            4.19
 1  LELQRQREARIRALARKQAQEQLR [K11I]  protein stability index            3.27
 2  LELQRQREARKRALARKQAQEKLR [Q22K]  protein stability index            3.77
 3  LELQRQREARKRALARKQAQFQLR [E21F]  protein stability index            2.93
 4  LELQRQREARKRALARKQAQCQLR [E21C]  protein stability index            3.01
 5  LELQRQREARKRMLARKQAQEQLR [A13M]  protein stability index            3.29
 6  LELQRQREARKRALARKQVQEQLR [A19V]  protein stability index            3.27
 7  LELQRQREARKTALARKQAQEQLR [R12T]  protein stability index            3.79
 8   LELQKQREARKRALARKQAQEQLR [R5K]  protein stability index            4.25
 9   LELQRQMEARKRALARKQAQEQLR [R7M]  protein stability index            3.52
10   LELQQQREARKRALARKQAQEQLR [R5Q]  protein stability index            4.32
11  LELQRQREARKRALARKQTQEQLR [A19T]  protein stability index               4
12  LELQRQREARKRALARKQAQPQLR [E21P]  protein stability index            3.45
13  LELQRQREARKRALARKQAYEQLR [Q20Y]  protein stability index            2.45
14   LEQQRQREARKRALARKQAQEQLR [L3Q]  protein stability index             3.9
15  LELQRQREARKRALARFQAQEQLR [K17F]  protein stability index            3.95
16   NELQRQREARKRALARKQAQEQLR [L1N]  protein stability index            4.27
17   LELQYQREARKRALARKQAQEQLR [R5Y]  protein stability index            4.19
18   LELQRLREARKRALARKQAQEQLR [Q6L]  protein stability index            3.33
19   LELQRQYEARKRALARKQAQEQLR [R7Y]  protein stability index            3.85
20   LELQRQVEARKRALARKQAQEQLR [R7V]  protein stability index            4.02
21   LELQRQNEARKRALARKQAQEQLR [R7N]  protein stability index            4.08
22   LELQMQREARKRALARKQAQEQLR [R5M]  protein stability index            4.03
23   LELWRQREARKRALARKQAQEQLR [Q4W]  protein stability index            3.43
24  LELQRQREARKRALARKQAQEQLD [R24D]  protein stability index             4.2
25   TELQRQREARKRALARKQAQEQLR [L1T]  protein stability index            3.34
26  LELQRQREARCRALARKQAQEQLR [K11C]  protein stability index            2.94
27   LELQRQRCARKRALARKQAQEQLR [E8C]  protein stability index            3.64
28   LELQWQREARKRALARKQAQEQLR [R5W]  protein stability index            4.02
29   LELQRQRESRKRALARKQAQEQLR [A9S]  protein stability index            4.01
30  LELQRQREARKRALAWKQAQEQLR [R16W]  protein stability index            3.74
31   LENQRQREARKRALARKQAQEQLR [L3N]  protein stability index            3.86
32   LELQRQREWRKRALARKQAQEQLR [A9W]  protein stability index            2.86
33  LELQRQREARKGALARKQAQEQLR [R12G]  protein stability index            4.23
34  LELQRQREARKRASARKQAQEQLR [L14S]  protein stability index            4.42
35  LELQRQREARKRALARVQAQEQLR [K17V]  protein stability index            4.31
36  LELQRQREARKRALARKQAQECLR [Q22C]  protein stability index            3.11
37   LELQRQRPARKRALARKQAQEQLR [E8P]  protein stability index            3.67
38  LELQRQREARKRALARKQSQEQLR [A19S]  protein stability index            4.17
39   LELGRQREARKRALARKQAQEQLR [Q4G]  protein stability index            3.41
40  LELQRQREAHKRALARKQAQEQLR [R10H]  protein stability index            3.79
41   LELDRQREARKRALARKQAQEQLR [Q4D]  protein stability index            3.96
42   FELQRQREARKRALARKQAQEQLR [L1F]  protein stability index            3.22
43   LELQRQSEARKRALARKQAQEQLR [R7S]  protein stability index            4.36
44  LELQRQREARKRALARKQAQETLR [Q22T]  protein stability index            3.16
45  LELQRQREARKRALARKQAQEQHR [L23H]  protein stability index            4.25
46  LELQRQREARKRALGRKQAQEQLR [A15G]  protein stability index            4.12
47  LELQRQREARKRALARKQAQEWLR [Q22W]  protein stability index             2.8
48  LELQRQREARKRALARKNAQEQLR [Q18N]  protein stability index            3.68
49   LELQRQPEARKRALARKQAQEQLR [R7P]  protein stability index            3.71
50  LELQRQREARKRALARKQEQEQLR [A19E]  protein stability index            3.28
51   LELQCQREARKRALARKQAQEQLR [R5C]  protein stability index            4.09
52   LEGQRQREARKRALARKQAQEQLR [L3G]  protein stability index            4.43
53  LELQRQREARMRALARKQAQEQLR [K11M]  protein stability index             3.5
54   EELQRQREARKRALARKQAQEQLR [L1E]  protein stability index            4.26
55   LGLQRQREARKRALARKQAQEQLR [E2G]  protein stability index            2.95
56  LELQRQREARKRALARKQAGEQLR [Q20G]  protein stability index            3.52
57   LELQRQREGRKRALARKQAQEQLR [A9G]  protein stability index            4.04
58  LELQRQREARKRFLARKQAQEQLR [A13F]  protein stability index            3.39
59  LELQRQREASKRALARKQAQEQLR [R10S]  protein stability index             4.2
60  LELQRQREAVKRALARKQAQEQLR [R10V]  protein stability index            3.38
61   LELQRQREFRKRALARKQAQEQLR [A9F]  protein stability index            2.73
62  LELQRQREARKRALASKQAQEQLR [R16S]  protein stability index            3.27
63  LELQRQREARKRALARKQAQRQLR [E21R]  protein stability index            3.99
64   VELQRQREARKRALARKQAQEQLR [L1V]  protein stability index            3.64
65   LELQRQLEARKRALARKQAQEQLR [R7L]  protein stability index             4.2
66  LELQRQREARKRALACKQAQEQLR [R16C]  protein stability index            3.57
67  LELQRQREARKRAFARKQAQEQLR [L14F]  protein stability index            3.74
68  LELQRQREARKRALARKQAQEQCR [L23C]  protein stability index            4.26
69   LEAQRQREARKRALARKQAQEQLR [L3A]  protein stability index            4.14
70   LELQRQHEARKRALARKQAQEQLR [R7H]  protein stability index            4.29
71   LEEQRQREARKRALARKQAQEQLR [L3E]  protein stability index            5.04
72   LELQREREARKRALARKQAQEQLR [Q6E]  protein stability index            4.46
73  LELQRQREAQKRALARKQAQEQLR [R10Q]  protein stability index            4.43
74  LELQRQREARKRAPARKQAQEQLR [L14P]  protein stability index            4.39
75  LELQRQREAWKRALARKQAQEQLR [R10W]  protein stability index            3.53
76  LELQRQREARKRRLARKQAQEQLR [A13R]  protein stability index            4.18
77   LELQRFREARKRALARKQAQEQLR [Q6F]  protein stability index            3.35
78   LELQRIREARKRALARKQAQEQLR [Q6I]  protein stability index            2.98
79  LELQRQREARKRALARKQALEQLR [Q20L]  protein stability index             2.8
80  LELQRQREARKRALARKQAQGQLR [E21G]  protein stability index            3.09
81  LELQRQREARKRALARGQAQEQLR [K17G]  protein stability index            4.66
82  LELQRQREARKRAEARKQAQEQLR [L14E]  protein stability index            4.35
83   LELTRQREARKRALARKQAQEQLR [Q4T]  protein stability index            4.06
84   LELQRQRQARKRALARKQAQEQLR [E8Q]  protein stability index            3.71
85  LELQRQREAMKRALARKQAQEQLR [R10M]  protein stability index            3.76
86   LELQRQREDRKRALARKQAQEQLR [A9D]  protein stability index            3.63
87  LELQRQREARKRALARKQAQWQLR [E21W]  protein stability index            3.48
88  LELQRQREARKRALARKQAEEQLR [Q20E]  protein stability index            4.48
89  LELQRQREARKRALARKQAMEQLR [Q20M]  protein stability index            2.88
90  LELQRQREARKRALARYQAQEQLR [K17Y]  protein stability index            3.71
